Would you kindly list pIC50 for each of these compounds?
- test system: BCAT2 (Homo sapiens)
- Sequence (O15382 28-392): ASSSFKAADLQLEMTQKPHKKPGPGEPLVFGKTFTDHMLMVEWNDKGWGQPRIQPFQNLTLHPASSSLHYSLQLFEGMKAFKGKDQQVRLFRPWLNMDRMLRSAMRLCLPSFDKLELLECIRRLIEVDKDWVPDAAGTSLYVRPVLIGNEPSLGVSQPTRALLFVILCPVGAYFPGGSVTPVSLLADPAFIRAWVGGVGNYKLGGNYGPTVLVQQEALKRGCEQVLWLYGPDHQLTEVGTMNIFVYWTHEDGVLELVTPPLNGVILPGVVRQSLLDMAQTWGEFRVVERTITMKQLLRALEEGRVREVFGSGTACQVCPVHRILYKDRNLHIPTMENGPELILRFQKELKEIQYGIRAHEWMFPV
- assay procedure: BCAT2 in vitro cell inhibition using engineered A549 cells (KMV cell assay, 13C6-KMV by LC-MS/MS)
- Format: cell-based
- Design: The result was an engineered A549 cell line that expressed endogenous BCAT2; endogenous in cells; host or cells: A549 cells with MUT and BCAT1 knocked out by CRISPR/CAS9
- experimental context: average where tested multiple times
pIC50: −log10 of the molar value.

Answered examples (5):
CC(C)Cc1nc2cnc(-c3nccs3)cc2n1[C@@H]1CCC[C@H](NC(=O)c2ncc(Cl)s2)C1 ... ≥ 7.00
O=C(N[C@H]1C[C@H](O)C[C@@H](n2c(-c3ccccc3F)nc3cnc(-n4nccn4)cc32)C1)c1ncc(Cl)s1 (single isomer, unassigned) ... ≥ 7.00
O=C(N[C@@H]1CCC[C@H](n2c(-c3ccccc3F)nc3cnc(-c4ccn[nH]4)cc32)[C@H]1O)c1ncc(Cl)s1 ... 6.00 to 6.30
CC(C)Cc1nc2cnc(-n3cc(F)cn3)cc2n1[C@@H]1CCC[C@H](NC(=O)c2ncc(Cl)s2)[C@H]1O ... 6.00 to 6.30
CC(Oc1nc2cnc(-n3nccn3)cc2n1[C@@H]1CCC[C@H](NC(=O)c2ncc(C(F)F)s2)C1)C(F)(F)F (some centres unmarked) ... < 6.00

Each of the following entries comes with a recorded value; kindly state pIC50 for each.
1. O=C(N[C@H]1CCC[C@@H](n2c(C3CCCCO3)nc3cnc(-c4nc[nH]n4)cc32)C1)c1ncc(Cl)s1 (single isomer, unassigned) [Example 90]
2. COc1cccc(F)c1-c1nc2cnc(-c3nc[nH]n3)cc2n1[C@@H]1CCC[C@H](NC(=O)c2ccc(Cl)s2)C1
3. O=C(N[C@H]1CCC[C@@H](n2c(-c3ccccn3)nc3cnc(-n4cccn4)cc32)C1)c1ccc(Br)s1
4. CC(C)Cc1nc2cnc(-c3nnco3)cc2n1[C@@H]1CCC[C@H](NC(=O)c2ncc(Cl)s2)C1
5. CN1CC(NC(=O)c2ccc(Br)s2)CC(n2c(-c3ccccc3F)nc3cnc(-c4ncco4)cc32)C1 (centres unmarked)
6. CC(C)[C@H](O)c1nc2cnc(-c3ncccn3)cc2n1[C@@H]1CCC[C@H](NC(=O)c2ncc(Cl)s2)C1
7. O=C(N[C@H]1CCC[C@@H](n2c(C3CCCOC3)nc3cnc(-c4nc[nH]n4)cc32)C1)c1ncc(Cl)s1 (single isomer, unassigned) [Example 102]

1. 6.30 to 7.00
2. ≥ 7.00
3. 6.00 to 6.30
4. < 6.00
5. ≥ 7.00
6. < 6.00
7. < 6.00

Each of the following entries comes with a recorded value; kindly state pIC50 for each.
1. Cc1cccnc1-c1cc2c(cn1)nc(-c1ccccc1F)n2[C@@H]1CCC[C@H](NC(=O)c2ncc(Cl)s2)C1
2. CO[C@H]1C[C@H](NC(=O)c2ncc(Cl)s2)C[C@H](n2c(CC(C)C)nc3cnc(-n4cncn4)cc32)C1

1. 6.30 to 7.00
2. < 6.00
